ASSAY_COMMENT: calcein-AM signal in unstimulated myeloma cells – cell-based, calcein-AM fluorescence, 48 h, PK04 Diversity Set, profiling panel (AID 1166);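 further: cells grown under basal conditions without added stimulus; test concentration not given here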
MEASUREMENT_SETUP: RPMI8226 myeloma viability, higher = more signal
RECORDED_ENDPOINT: z-score
Please reply with the number alone, leaving off any unit.

CN1C(=O)C2C=CC(C(O)c3ccccc3)N(N3CCCCC3)C2C1=O (centres undefined) = 0.539
C=C[C@H](C)[C@@H](OC(=O)Nc1ccc(SC)cc1)c1ccc(O)c2ccccc12 = -4.27
C=C(/C(=C/C[C@H](OC(=O)c1ccncc1)c1ccc(OCCO)cc1)c1cc(C(=O)OC)ccc1OC)C(C)C = -1.9

Consider the additional molecule presented here.
In: I have this molecule here, CN1C(=O)C2C=CC(C(O)C=Cc3ccc([N+](=O)[O-])cc3)N(Nc3ccccc3)C2C1=O (centres undefined) , and I need its recorded z-score.
Out: -0.997

* * *

ASSAY_COMMENT: JC-1 mitochondrial potential readout, lung cancer cells – cell-based, A549, JC-1 fluorescence, basal, 24 h, 100 nL, profiling panel (AID 1138);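 further: A549 lung adenocarcinoma cells under basal conditions with no added stimulus; test concentration not given here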
MEASUREMENT_SETUP: higher = more signal
Quick reference for z-score among some compounds
Give only the figure.

Consider the reported z-score for these compounds:
CCOC(=O)C[C@H]1[C@H](OC(=O)c2cc3ccccc3oc2=O)[C@@H](NC(=O)CC(C)C)c2cc(OCCCO)ccc2N1C(=O)c1ccccc1 = -0.399
[N-]=[N+]=Nc1ccccc1C[C@@]1(C(=O)N2CCCCC2)N=C(c2ccc(OCCCO)cc2)O[C@@H]1c1ccccc1N=[N+]=[N-] = -1.21
C[N+](C)(C)CCCC[C@@H]1NC(=O)[C@@H]2C[C@H](C(=O)NCCCCCCNC(=O)CS)[C@H](c3ccc(O)cc3)N2C1=O = -0.122
COCCCNC(=O)[C@@H]1c2ccccc2C(=O)N(Cc2ccccc2)[C@H]1c1ccc(CO)cc1 = 1.29
CCCCN1CC=CC23O[C@@H]4C=CCOC(=O)[C@@H]4[C@H]2C(=O)N(CCCCCCO)[C@@H]3C1=O (some centres not stated) = 0.00246
C=CC[C@]1(C(N)=O)N=C(c2ccc(OCCCO)cc2)O[C@H]1c1ccccc1 = -0.852

In: Data request, read-out z-score, for `C=C(/C(=C/C[C@H](OC(C)=O)c1ccc(OCCO)cc1)c1cc(C(=O)OC)ccc1OC)C(C)C`
Out: 1.75

In: // query: `CCCC=C(CCC)[C@@H](NS(=O)(=O)c1ccc(Cl)cc1)c1ccc(C(=O)OC)cc1`
Out: 0.418

* * *

System: wheat germ agglutinin (Triticum aestivum), Alexa647-labelled
ASSAY_COMMENT: Alexa647-WGA lectin binding to printed small molecules – biochemical, small-molecule microarray, 635/667 nm fluorescence, artefact control for SMM control-protein annotation, profiling panel (AID 1140);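 further: score merges 667 nm feature emission with signal to noise over triplicate slides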
MEASUREMENT_SETUP: WGA-A647 binding, 635 nm fluorescence, higher = more signal
RECORDED_ENDPOINT: composite z-score
// keep it numeric: no unit symbol after the value

COc1ccc([C@H]2C[C@H]3C(Br)=C[C@@]2(CO)C(=O)[C@]32CO2)cc1 = 0.138

In: Please tell me: composite z-score of `COc1ccccc1CN1C(=O)c2ccccc2[C@@]2(Cc3ccccc3N(CCCN(C)C)C2=O)[C@@H]1c1ccc(CO)cc1` , system wheat germ agglutinin (Triticum aestivum), Alexa647-labelled?
Out: -0.331

In: What about this compound? `CO[C@H]1O[C@H](CO)[C@@H](OC(=O)Nc2ccc(Br)cc2)[C@@H]2OC(=O)[C@H](Cc3cccc(Br)c3)C/C=C/C[C@@H](Cc3cccc(Br)c3)C(=O)O[C@@H]12`
Out: 0.616

In: Same for `COC(=O)[C@@]1(Cc2ccc(F)cc2)[C@H]2c3cc(C(=O)N(C)C)n(Cc4ccc(C)o4)c3C[C@H]2CN1C(=O)c1ccccc1`
Out: 0.319

In: Next: `O=C(NC1CC1)[C@@H]1c2ccccc2C(=O)N(Cc2cc(F)cc(C(F)(F)F)c2)[C@H]1c1ccc(CO)cc1`
Out: 0.569

In: Ok, now `COCCCNC(=O)[C@@]1(Cc2ccccc2CN=[N+]=[N-])N=C(c2ccc(OCCCO)cc2)O[C@H]1c1ccccc1CN=[N+]=[N-]`
Out: 0.28

In: Same for `COC(=O)c1c(CC[C@@H](CO)NC(=O)NCCc2c[nH]c3ccccc23)oc(C(=O)Cc2ccccc2)c1C(=O)OC`
Out: 0.0707

In: Note, next up: `Cc1c(NC(=O)/C(C#N)=C/c2cccc([N+](=O)[O-])c2)c(=O)n(-c2ccccc2)n1C`
Out: 0.441

In: Also `CC(C)(C)OC(=O)CC[C@]1(C(N)=O)N=C(c2ccc(OCCCO)cc2)O[C@H]1c1ccccc1` , if possible.
Out: 1.48

In: One more compound: CCCCN1CC=CC23O[C@@H]4C=CCCOC(=O)C4[C@H]2C(=O)N(CCCCCO)[C@@H]3C1=O (stereo partly specified)
Out: 0.0604

In: Further, for `COCCOC(=O)N1C(=O)[C@@]2(c3ccccc31)[C@H](C(=O)N1CCc3cc(OC)c(OC)cc3C1)[C@H]1C(=O)O[C@H](c3ccccc3)[C@H](c3ccccc3)N1[C@@H]2c1ccc(O)cc1` ?
Out: 0.74

In: Next compound: COc1cc(OC)c(C(O)C2C=CC3C(=O)NC(=O)C3N2Nc2ccccn2)cc1Br (stereo unspecified)
Out: 0.0687

In: Now consider `NCCCCCCNC(=O)[C@H]1C[C@H]2C(=O)N[C@@H](Cc3ccccc3)C(=O)N2[C@H]1c1cccc(OCCO)c1` .
Out: 0.961

In: Ok, now `C#CCN(C/C=C/c1ccccc1)[C@H](CO)c1ccccc1`
Out: 0.241

In: Proceed to `C=C[C@H](C)[C@@H](OC(=O)Nc1ccc(SC)cc1)c1ccc(O)c2ccccc12`
Out: 0.108

In: Also `CN(C)CCCCCCNC(=O)[C@@H]1C[C@@H]2C(=O)N[C@@H](CCCC[N+](C)(C)C)C(=O)N2[C@@H]1c1ccc(O)cc1` ?
Out: 0.427

In: Next: `C[N+](C)(C)CCCC[C@@H]1NC(=O)[C@H]2C[C@@H](C(=O)NCCCCCCNC(=O)CS)[C@@H](c3ccc(O)cc3)N2C1=O`
Out: -1.07

In: Consider next the compound `COCCOC(=O)N1C(=O)[C@@]2(c3cc(C#Cc4ccc(OC)cc4)ccc31)[C@H](c1ccc(O)cc1)N1[C@H](c3ccccc3)[C@H](c3ccccc3)OC(=O)[C@H]1[C@@H]2C(=O)Nc1nc2ccccc2s1` in the same way.
Out: 0.649

In: Lookup O=C1C2C=CC(C(O)C=Cc3ccc([N+](=O)[O-])cc3)N(Nc3ccccc3F)C2C(=O)N1c1ccccc1 (stereo unspecified)
Out: 1

In: Same for O=C1C2C=CC(C(O)c3cc(C(F)(F)F)cc(C(F)(F)F)c3)N(Nc3ccccc3)C2C(=O)N1c1ccccc1 (stereo unspecified)
Out: 0.173

In: What do you get for CCCCN1CC=CC23O[C@@H]4C=CCOC(=O)[C@@H]4[C@H]2C(=O)N(CCCCCCO)[C@@H]3C1=O (stereo partly specified) ?
Out: -1.24

In: // same read-out, input: `CCCNC(=O)[C@@H]1c2ccccc2C(=O)N(Cc2ccccc2OC)[C@H]1c1ccc(CO)cc1`
Out: 0.712

In: Next: CN1CCC(CCCO)=CC1c1cccs1 (stereo unspecified)
Out: -0.485

In: Another compound to look at: [N-]=[N+]=NCc1ccccc1C[C@@]1(C(=O)NCC(O)CO)N=C(c2ccc(OCCCO)cc2)O[C@@H]1c1ccccc1 (stereo partly specified)
Out: 0.276

In: Repeat for the following compound: CC=CC(O)C1C=CC2C(=O)N(C)C(=O)C2N1N(c1ccccc1)c1ccccc1 (stereo unspecified)
Out: 0.318

In: Follow-up entry: `C=CC[C@]1(C(N)=O)N=C(c2ccc(OCCCO)cc2)O[C@H]1c1ccccc1`
Out: 0.417
